Biological target: T1, human SLITRK6 on cells (human, UniProt Q9H5Y7 27-841)
T1 construct: whole, on cells
Experiment: flow cytometry on SW780 cells, PE-conjugated anti-human Fc
endpointName: EC50 (read off the curve)

- binder: "hu1H2-03-LD038 (antibody, V domains shown, drug-linker LD038 conjugated to the antibody; positions not given, also called hu1H2-03-LALA-LD038; hu1H2-03-LD038 (8)) VH: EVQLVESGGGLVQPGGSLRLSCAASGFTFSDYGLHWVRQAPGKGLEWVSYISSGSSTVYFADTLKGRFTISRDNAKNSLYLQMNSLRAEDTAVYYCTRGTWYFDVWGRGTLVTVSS VL: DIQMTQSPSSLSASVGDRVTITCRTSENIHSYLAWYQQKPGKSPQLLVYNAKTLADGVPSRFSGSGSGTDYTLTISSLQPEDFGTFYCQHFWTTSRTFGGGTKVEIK"
  result: "~0.4 nM"
- binder: "AGS15E (antibody, V domains shown, drug conjugate; drug-linker and positions not given, also called ADC of Sirtratumab) VH: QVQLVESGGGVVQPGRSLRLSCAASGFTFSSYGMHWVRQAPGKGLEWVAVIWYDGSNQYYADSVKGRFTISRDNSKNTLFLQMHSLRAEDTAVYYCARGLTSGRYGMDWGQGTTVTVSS VL: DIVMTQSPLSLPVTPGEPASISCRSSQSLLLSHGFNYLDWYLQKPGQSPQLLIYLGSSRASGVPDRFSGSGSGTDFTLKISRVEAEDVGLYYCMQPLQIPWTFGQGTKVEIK"
  result: "~0.3 nM"
- binder: "Sirtratumab (antibody, V domains shown, Prior-art benchmark antibody; also called Sirtratuzumab) VH: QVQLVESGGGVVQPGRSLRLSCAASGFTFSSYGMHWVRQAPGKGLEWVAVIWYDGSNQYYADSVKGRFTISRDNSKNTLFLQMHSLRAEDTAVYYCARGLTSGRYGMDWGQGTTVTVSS VL: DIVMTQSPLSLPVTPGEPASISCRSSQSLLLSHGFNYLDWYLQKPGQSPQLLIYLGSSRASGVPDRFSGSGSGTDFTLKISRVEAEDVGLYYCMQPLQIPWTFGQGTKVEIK"
  result: "~0.2 nM"
- binder: "hu1H2-03 with a LALA mutation (hu1H2-03-LALA) (antibody, V domains shown) VH: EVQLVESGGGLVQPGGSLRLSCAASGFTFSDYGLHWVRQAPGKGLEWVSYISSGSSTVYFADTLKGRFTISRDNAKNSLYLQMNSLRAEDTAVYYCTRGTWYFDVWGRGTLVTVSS VL: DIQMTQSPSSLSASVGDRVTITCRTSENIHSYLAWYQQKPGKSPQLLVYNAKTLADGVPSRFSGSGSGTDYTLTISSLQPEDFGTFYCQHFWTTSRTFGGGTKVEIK"
  result: "~0.3 nM"
